Numbers sourced from ChEMBL document CHEMBL1961873.

biological target: Ribosomal protein S6 kinase alpha-1 (Homo sapiens) (UniProt Q15418); conditions: at 0.1 µM
Sequence (Q15418 whole entry): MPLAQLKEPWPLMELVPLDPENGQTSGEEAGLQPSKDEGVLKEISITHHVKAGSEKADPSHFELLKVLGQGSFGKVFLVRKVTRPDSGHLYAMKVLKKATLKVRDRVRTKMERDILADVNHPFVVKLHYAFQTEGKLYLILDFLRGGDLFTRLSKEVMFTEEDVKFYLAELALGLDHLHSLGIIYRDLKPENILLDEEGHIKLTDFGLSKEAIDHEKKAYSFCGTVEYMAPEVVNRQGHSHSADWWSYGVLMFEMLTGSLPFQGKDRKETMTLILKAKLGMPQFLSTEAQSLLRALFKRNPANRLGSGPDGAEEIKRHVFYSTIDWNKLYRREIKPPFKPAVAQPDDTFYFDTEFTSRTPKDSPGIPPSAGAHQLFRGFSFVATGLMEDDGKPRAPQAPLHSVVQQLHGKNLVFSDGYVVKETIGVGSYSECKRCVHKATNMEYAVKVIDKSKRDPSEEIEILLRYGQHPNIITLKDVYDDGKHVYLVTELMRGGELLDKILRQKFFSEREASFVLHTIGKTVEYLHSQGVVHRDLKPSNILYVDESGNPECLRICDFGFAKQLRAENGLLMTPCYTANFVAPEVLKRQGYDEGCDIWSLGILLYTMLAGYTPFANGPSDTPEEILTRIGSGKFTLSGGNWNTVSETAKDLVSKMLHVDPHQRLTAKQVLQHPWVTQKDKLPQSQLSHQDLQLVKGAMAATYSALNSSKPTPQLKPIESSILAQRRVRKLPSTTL
I'd be grateful if you could share measured inhibition for these entries.
Please give a number only; it is taken to be in %.

Please state recorded inhibition (tested on Ribosomal protein S6 kinase alpha-1 (Homo sapiens) (UniProt Q15418)) of O=C1Nc2ccc(-c3cccnc3)cc2C1=Cc1cc(Br)c(O)c(Br)c1;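 note: values are mean percent inhibition of RSK1 measured in the GSK PKIS kinase inhibitor set screen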
2.15

Moving on to CCS(=O)(=O)c1ccc(OC)c(Nc2ncc(-c3cccc(OC)c3)o2)c1
0.6

Try this compound next: COc1cc(Nc2nccc(-c3cnn4ncccc34)n2)cc(OC)c1
1.35

Again, but for C[C@@H](Oc1cc(-n2cnc3ccc(OCC4CCN(C)CC4)cc32)sc1C(N)=O)c1ccccc1C(F)(F)F
5.1

Same lookup for NS(=O)(=O)c1cccc(Nc2cc(-c3ccc(F)cc3)n[nH]2)c1 , please.
3.22

Same lookup for ON=C1CCc2cc(-c3nc(C4CCNCC4)[nH]c3-c3ccncc3)ccc21 , please.
-1.46

And then CCn1c(-c2nonc2N)nc2ccc(F)cc21 , what is it?
4.37

// query: COc1cc2ncnc(Nc3ccc(C)c(O)c3)c2cc1OC
1.8

Try this compound too: NS(=O)(=O)c1ccc(N/N=C2\C(=O)Nc3ccc(Cl)cc32)cc1
1.95

Let us now turn to CN(C)c1cc2c(Nc3ccc4c(cnn4Cc4ccccc4)c3)ncnc2cn1
0.98

Next record, please: Cc1ccc2c(c1)/C(=N/Nc1ccc(S(N)(=O)=O)cc1)C(=O)N2
0.21

Follow-up item: Nc1nccc(-c2c(-c3ccc(F)cc3)ncn2CCCN2CCOCC2)n1
2.16

For NS(=O)(=O)c1cccc(-c2cc3ccncc3cc2OCc2ccccc2)c1 then?
1.02

Moving on to the next compound: NS(=O)(=O)c1ccc(NC=C2C(=O)Nc3ccc4ncsc4c32)cc1
15.1

And then COC(=O)c1ccc2c(c1)C(=Cc1cc(Br)c(O)c(Br)c1)C(=O)N2 , what is it?
1.5

Check CC(C)c1ccc2c(c1)NC(=O)/C2=N/Nc1ccc(S(N)(=O)=O)cc1 too.
0.52

Now give it for Cc1ccc(Nc2ccnc(Nc3cccc(C(N)=O)c3)n2)cc1O too.
2.41

Cc1ccc(C(=O)NC2CC2)cc1-c1ccc2[nH]ncc2c1 ?
1.16

Also need COc1cccc(-n2nc(C)c3c(N/N=C(\C)c4ccncc4)ncnc32)c1 , thanks.
-1.25

Moving on to the next compound: COc1cc(/C=N/Nc2ncnc3c2cnn3C(C)C)ccc1O
10.4

Next up: NC(=O)c1sc(-n2cnc3ccccc32)cc1OCc1ccccc1Br
1.32

Now try c1ccc(Nc2ncc(-c3ccccc3)o2)cc1 .
2.02

Ok, now FC(F)(F)c1ccc(-c2nn3ncccc3c2-c2ccnc(Nc3ccc4c(c3)OCCO4)n2)cc1
1.49

Consider next the compound O=S(=O)(CCOCc1ccc(-c2ccc3ncnc(Nc4ccc(OCc5cccc(F)c5)c(Cl)c4)c3c2)o1)c1ccccc1 in the same way.
-1.65

Thanks! And Cc1cc(Cl)cc2c1NC(=O)C2=NNc1ccc(S(N)(=O)=O)cc1 ?
2.28

Field entry: NS(=O)(=O)c1ccc(Nc2cc(-c3cccc(O)c3)n[nH]2)cc1
2.5

How about this compound: N#Cc1cccc(Nc2nccc(-c3cnn4ncccc34)n2)c1
2.54

Another compound to look at: Cc1cc(O)cc(C)c1/C=C/c1cncc(C(=O)N(C)C)c1
1.88

And COc1cc2ncn(-c3cc(OCc4ccccc4S(C)(=O)=O)c(C#N)s3)c2cc1OC ?
5.57

Another compound to check: OCc1ccc(-c2nc(-c3ccccn3)c(-c3ccc4c(c3)OCO4)[nH]2)cc1
1.38

Again, but for Cc1nc(-c2ccccc2)n2nc(NCCCN3CCOCC3)ncc12
1.44

How about this compound: CN(C)C(=O)O[C@@H]1CN[C@@H](C#Cc2cc3ncnc(Nc4ccc(OCc5cccc(F)c5)c(Cl)c4)c3s2)C1
0.43

Would you mind doing c1ccc(Cc2nc3ccc(Nc4ncnc5ccccc45)cc3[nH]2)cc1 as well?
2.52

Now give it for Cc1ccc2c(-c3ccnc(Nc4cccc(C(F)(F)F)c4)n3)c(-c3ccccc3)nn2n1 too.
0.52

Try this compound next: CC(C)c1ccc(Nc2nccc(-c3cnn4ncccc34)n2)cc1
0.96

====

biological target: Aurora kinase A (Homo sapiens); details: at 0.1 µM;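 note: each reported value is a mean percent inhibition of Aurora-A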
METRIC_NAME: inhibition (%)
Reply numerically in %, unit not repeated.

Can you look up inhibition on Aurora kinase A (Homo sapiens) for NS(=O)(=O)c1ccc(N/N=C2\C(=O)Nc3ccc(Cl)cc32)cc1 ?
3.86

Continue with N#Cc1c(NC(=O)c2ccccc2F)sc2c1CCCC2
-0.7

Do the same for COC(=O)c1cncc(/C=C/c2c(C)cc(O)cc2C)c1 please
2.33

Follow-up item: NS(=O)(=O)c1ccc(-c2cc3ccncc3cc2OCc2ccccc2)cc1
2.34

And the next one, Oc1cccc(-c2nc(-c3ccccc3)[nH]c2-c2ccncc2)c1 ?
2.96

Another: Cc1ccc(C(=O)NC2CC2)cc1-c1ccc2[nH]ncc2c1
-3.2

Also, CN(c1ccc(NC(=O)Nc2ccc(OC(F)(F)F)cc2)cc1)c1ccnc(Nc2cccc(S(N)(=O)=O)c2)n1 please.
7.93

How about O=C1Nc2ccc(-c3cccnc3)cc2C1=Cc1cc(Br)c(O)c(Br)c1 ?
15.5

// query: Nc1ccc(C#Cc2cncnc2Nc2ccc(OCc3cccc(F)c3)c(Cl)c2)cc1
2.18

Param item: COc1cc(/C=N/Nc2ncnc3c2cnn3C(C)C)ccc1O
3.73

How about NS(=O)(=O)c1ccc(Nc2cc(-c3cccc(O)c3)n[nH]2)cc1 ?
3.17

====

target: Serine/threonine-protein kinase PAK 1 (Homo sapiens); details: at 1 µM;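 note: reported values are mean percent inhibition of PAK1 activity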
Is inhibition at least 4%? Then Met. If not, Not met.

Please indicate if the recorded inhibition for Cc1ccc2c(-c3ccnc(Nc4ccc5c(c4)OCCO5)n3)c(-c3ccc(C(F)(F)F)cc3)nn2n1 meets or exceeds 4%.
Not met

Also need COc1cc(/C=N/Nc2ncnc3c2cnn3C(C)C)ccc1O , thanks.
Not met

What about c1ccc(Nc2ncc(-c3ccccc3)o2)cc1 ?
Met

For CC(C)c1ccc(Nc2nccc(-c3cnn4ncccc34)n2)cc1 then?
Not met

Next molecule up: NS(=O)(=O)c1ccc(NC=C2C(=O)Nc3ccc4ncsc4c32)cc1
Met

Request: FC(F)(F)c1ccc(-c2nn3ncccc3c2-c2ccnc(Nc3ccc4c(c3)OCCO4)n2)cc1
Not met

Next up: c1ccc(Cc2nc3ccc(Nc4ncnc5ccccc45)cc3[nH]2)cc1
Not met

Proceed to CS(=O)(=O)Nc1cccc(-c2ccc3c(NC(=O)C4CC4)n[nH]c3c2)c1
Not met

Next molecule: Cc1cc(-c2ccccn2)cc(C)c1/C=C/c1cncc(-c2nn[nH]n2)c1
Met

Input CCS(=O)(=O)c1ccc(OC)c(Nc2ncc(-c3cccc(OC)c3)o2)c1
Met

Repeat with NC(=O)c1sc(-n2cnc3ccccc32)cc1OCc1ccccc1Br
Met

Another molecule to look at: CCCN1CCCC(c2ccc(Nc3nc(Nc4cc(F)ccc4C(N)=O)c4cc[nH]c4n3)c(OC)c2)C1 (stereo not given)
Met

Lookup COc1ccc(-c2nn3ncccc3c2-c2ccnc(Nc3cccc(C(F)(F)F)c3)n2)cc1
Met

Now this one: CN(C)c1cc2c(Nc3ccc4c(cnn4Cc4ccccc4)c3)ncnc2cn1
Met

Another molecule: COc1cccc(-n2ncc3c(N/N=C/c4ccc(S(C)(=O)=O)cc4)ncnc32)c1
Not met

Then ON=C1CCc2cc(-c3nc(C4CCNCC4)[nH]c3-c3ccncc3)ccc21 ?
Not met

Param item: C[C@@H](Oc1cc(-n2cnc3ccc(OCC4CCN(C)CC4)cc32)sc1C(N)=O)c1ccccc1C(F)(F)F
Not met

Now the same for CS(=O)(=O)CCNCc1nc(-c2ccc3ncnc(Nc4ccc(OCc5cccc(C(F)(F)F)c5)cc4)c3c2)cs1
Not met

====

Hi there, I'd appreciate the recorded inhibition for every entry that follows.
molecular target: Glycogen synthase kinase-3 alpha (Homo sapiens) (UniProt P49840); conditions: at 0.1 µM;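 note: values are mean inhibition of GSK3A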
Sequence (P49840 2-483 limits assumed): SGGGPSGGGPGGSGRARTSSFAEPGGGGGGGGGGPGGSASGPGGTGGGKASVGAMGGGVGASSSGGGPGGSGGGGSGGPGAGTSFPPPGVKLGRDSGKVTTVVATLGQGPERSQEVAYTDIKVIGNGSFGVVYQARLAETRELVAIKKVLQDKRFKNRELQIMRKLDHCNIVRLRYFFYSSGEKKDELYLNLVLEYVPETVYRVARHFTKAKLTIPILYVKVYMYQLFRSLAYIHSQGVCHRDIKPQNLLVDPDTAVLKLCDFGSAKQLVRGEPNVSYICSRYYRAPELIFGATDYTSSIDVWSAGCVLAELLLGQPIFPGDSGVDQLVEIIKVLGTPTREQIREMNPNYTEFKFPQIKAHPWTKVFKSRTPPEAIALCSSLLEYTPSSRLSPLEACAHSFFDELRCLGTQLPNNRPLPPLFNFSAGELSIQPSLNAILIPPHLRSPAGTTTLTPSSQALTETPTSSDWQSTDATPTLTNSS
State just the number; it will be interpreted in %.

Reported inhibition, compound Nc1nccc(-c2c(-c3ccc(F)cc3)ncn2CCCN2CCOCC2)n1 : ____
1.73

Now give it for c1ccc(Nc2ncc(-c3ccccc3)o2)cc1 too.
4.96

# iterate: Cc1ccc2c(c1)/C(=N/Nc1ccc(S(N)(=O)=O)cc1)C(=O)N2
4.1

Would you mind doing NC(=O)c1cccc(Nc2nccc(Nc3cccc(F)c3)n2)c1 as well?
3.82

Again, but for c1ccc(Cc2nc3ccc(Nc4ncnc5ccccc45)cc3[nH]2)cc1
5.62

Please give the result for CCn1c(-c2nonc2N)nc2c(C#CC(C)(C)O)nc(OCCNC)cc21 too.
11.6

Also COc1cccc(-n2ncc3c(N/N=C/c4ccc(C)cc4)ncnc32)c1 , if possible.
19.4
